Can you tell me viability, T/C for the items I'm about to list?
- Tested on: 299254-011-R-J1-PDC complex spheroids viability;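 also: spheroids exposed to the agents for seven days before readout; percent viability relative to DMSO vehicle control wells = 100%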
- Assay: Anticancer human tumor 299254-011-R-J1-PDC patient-derived melanoma cell line growth inhibition [GQUAD]
- Measurement Setup: second compound 0.1 µM; first compound 1 µM; stronger effect = lower value
Answers are plain numbers, in %.

CC(=O)O[C@H]1C(=O)[C@@]2(C)[C@H]([C@H](OC(=O)c3ccccc3)[C@]3(O)C[C@H](OC(=O)[C@H](O)[C@@H](NC(=O)c4ccccc4)c4ccccc4)C(C)=C1C3(C)C)[C@]1(OC(C)=O)CO[C@@H]1C[C@@H]2O + Cc1cnc(CNC(=O)c2c(=O)c3ccc(N4CCCN(C)CC4)nc3n3c2sc2ccccc23)cn1 yielded viability, T/C of 29.3

// next item, viability, T/C requested
Value of viability, T/C reported for the compound Cc1cccc(N(C)C(=O)C2C(O)CCN2c2nc(C)cc(C(F)(F)F)c2C#N)c1 (configuration not stated) + Cc1[nH]c2ccc(F)cc2c1-c1nc2c3cccnc3c3ncccc3c2[nH]1 is 77.5

Just for reference, PubChem BioAssay AID2060513 is where these values come from.
